Target: α-glucosidase (Saccharomyces cerevisiae, UniProt P53341)
Construct: purchased Sigma-Aldrich
Sequence (P53341 whole entry): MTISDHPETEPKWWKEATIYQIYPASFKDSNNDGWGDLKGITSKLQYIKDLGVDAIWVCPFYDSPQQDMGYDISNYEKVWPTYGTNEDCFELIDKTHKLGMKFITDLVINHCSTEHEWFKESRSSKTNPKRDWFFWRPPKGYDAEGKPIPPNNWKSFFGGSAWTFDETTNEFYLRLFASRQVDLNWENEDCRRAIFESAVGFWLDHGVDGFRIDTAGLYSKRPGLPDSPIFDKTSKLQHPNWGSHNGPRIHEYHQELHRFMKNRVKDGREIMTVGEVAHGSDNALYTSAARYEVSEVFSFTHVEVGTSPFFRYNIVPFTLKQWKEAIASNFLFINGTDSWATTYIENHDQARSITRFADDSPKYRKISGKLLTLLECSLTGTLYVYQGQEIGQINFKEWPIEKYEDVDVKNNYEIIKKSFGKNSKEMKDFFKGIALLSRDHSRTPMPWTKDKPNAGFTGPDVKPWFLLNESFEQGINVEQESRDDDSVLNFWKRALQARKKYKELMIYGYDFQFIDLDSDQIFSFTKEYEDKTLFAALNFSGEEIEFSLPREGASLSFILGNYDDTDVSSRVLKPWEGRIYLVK
Assay: biochemical
Format: biochemical
Settings: yeast α-glucosidase, p-nitrophenyl glucopyranoside substrate, pH 6.8, 37 °C; mean ± SD; read-out: IC50 against α-glucosidase
Listed here: items and their measured IC50.

Cc1cccc(NC(=O)CSc2nc3ccccc3cc2-c2nc3ccccc3c(=O)[nH]2)c1C [9c] | > 750 µM
O=C(CSc1nc2ccccc2cc1-c1nc2ccccc2c(=O)[nH]1)Nc1ccc([N+](=O)[O-])cc1 [9m] | 52 µM
CCc1ccc(NC(=O)CSc2nc3ccccc3cc2-c2nc3ccccc3c(=O)[nH]2)cc1 [9e] | > 750 µM
O=C(CSc1nc2ccccc2cc1-c1nc2ccccc2c(=O)[nH]1)Nc1ccccc1 [9a] | 25.8 µM
O=C(CSc1nc2ccccc2cc1-c1nc2ccccc2c(=O)[nH]1)NCc1ccccc1 [9n] | > 750 µM
O=C(CSc1nc2ccccc2cc1-c1nc2ccccc2c(=O)[nH]1)Nc1ccc(F)cc1 [9i] | > 750 µM

Q: Which IC50 is listed for O=C(CSc1nc2ccccc2cc1-c1nc2ccccc2c(=O)[nH]1)Nc1ccc(O)cc1 [9g] ?
Result: 9 µM

Q: Quick check: IC50 of Cc1ccc(CNC(=O)CSc2nc3ccccc3cc2-c2nc3ccccc3c(=O)[nH]2)cc1 [9o] ?
Result: > 750 µM

Q: Which IC50 value is on record for O=C(CSc1nc2ccccc2cc1-c1nc2ccccc2c(=O)[nH]1)Nc1ccc(Cl)cc1 [9k] ?
Result: 40.1 µM

Q: Could you share which IC50 value was measured for O=C(CSc1nc2ccccc2cc1-c1nc2ccccc2c(=O)[nH]1)NCc1ccc(F)cc1 [9p] ?
Result: > 750 µM

Q: Which IC50 value belongs to Cc1cccc(C)c1NC(=O)CSc1nc2ccccc2cc1-c1nc2ccccc2c(=O)[nH]1 [9d] ?
Result: > 750 µM

Q: Request the reported IC50 associated with O=C(CSc1nc2ccccc2cc1-c1nc2ccccc2c(=O)[nH]1)Nc1ccc(Br)cc1 [9l]
Result: > 750 µM

Hey, just so you know, these numbers are from paper PMC10291282.
